- Target system: HLA-DQ molecule DQB1*0202 (human)
- Assay: inhibition of radiolabeled peptide binding to purified HLA
Experimental endpoint: IC50 (µM)
Unit µM implied. Number only.

These solved cases illustrate the format of a correct answer.
Input: So what's the measured IC50 for this one? YVGHDEFDAFVAYHI [Der p 4 peptide 3324.0975 (position 476)]
Output: 8.14

Input: And the next one, GGSILKISNKFHTKG [Aln g 1 peptide 3324.0007 (position 111)] ?
Output: 50

Input: AFMLAWNYGVPRVMS [Der p 4 peptide 3324.0977 (position 321)] ?
Output: 8.36

Input: Try the binder REALAQTHSAIAVII [Der p 1 peptide 3324.0840 (position 226)]
Output: 0.629

Input: Check LEKISNEIKIVATPD [Bet v 1 peptide 3324.0353 (position 96)] too.
Output: 8.67

New cases:
Input: # IC50 lookup, item RTLNKIVYIKPAKNI [Bet v 6 peptide 3324.0387 (position 206)]
Output: 12.5

Input: Then FDAFVAYHIGARIVS [Der p 4 peptide 3324.0971 (position 482)] ?
Output: 4.75
